B1: KRT33B (parent)
chain: PAVDLNQVLNETRNQYEALVETNR

Variants of: B1
Test: protein stability index of a GFP-peptide fusion (GPS, HEK-293T) (PSI 1-6); higher = more stable;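 note: lentivirally expressed fusions sorted by FACS into six bins by GFP to DsRed ratio, PSI derived from sequencing read proportions per bin multiplied by bin number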
Details: c terminus: a fixed tail appended
Below: a set of entries, each annotated with reported protein stability index.
MEASURE_NAME: protein stability index

T22E | 4.05
A18Y | 3.96
P1W | 3.26
P1D | 4.32
N6L | 1.71
N14C | 2.82
E17S | 4.24
R24C | 2.43
P1F | 2.78
R13E | 4.86
T22F | 3.61
Q15L | 2.04
V8T | 4.41
V3R | 3.4
D4S | 2.74
Q7E | 3.11
T12F | 1.85
Q15F | 2.72
N10V | 3.22
N14V | 3.3
V8I | 2.98
R13Q | 4.32
L5P | 4.03
E17N | 3.61
T12Q | 2.85
Q7K | 3.91
V8C | 3.71
Y16G | 5.21
R24V | 1.45
P1T | 3.72
Y16L | 4.37
V8R | 4.93
Q15D | 4.33
R24F | 3
E11G | 3.85
D4R | 3.76
V8G | 4.91
Y16V | 4.92
E11I | 3.97
A18G | 4.48
L19I | 4.11
A18E | 3.58
L19F | 4.11
L5Y | 3.44
E17I | 3.13
R13N | 5.01
